Data provenance: patent US12098109B2

Would you mind telling me the reported Clear layer (cm) of each entry?
# EXPERIMENT: Stability by top clear layer after 3 days @ 50 C
# Format: physicochemical
# RUN_PARAMETERS: 4% organic liquid added to Example 56; top clear layer after 3 days @ 50 C
Answers are plain numbers, in cm.

# map each compound to its Clear layer (cm)
1. CN1CCCC1=O
2. CC1(C)OCC(CO)O1 (stereo not shown)
3. OCC(O)CO
4. C[S+](C)[O-] [dimethyl sulfoxide]

Response given:
[0.45, 0.3, 0.4, 0]

====

# EXPERIMENT: Flowability by elapsed flow-out time
# Format: physicochemical
# RUN_PARAMETERS: 4% organic liquid added to Example 56; time for 4 grams of 5 gram sample to flow out of 0.9 cm opening @ 25 C
OBSERVED_PROPERTY: seconds (flowability) (s)
Give bare numbers, in s.

Sample records with seconds (flowability):
- MOLECULE: "CN1CCCC1=O [N-methyl pyrrolidone]"
  OBSERVED_PROPERTY: "seconds (flowability)"
  RESULT_VALUE: 2.49
- MOLECULE: "CC1(C)OCC(CO)O1 (stereo not shown) [2,2-dimethyl-l,3-dioxolane-4-methanol, 2,2-dimethyl-1,3-dioxolane-4-methanol]"
  OBSERVED_PROPERTY: "seconds (flowability)"
  RESULT_VALUE: 3.85
- MOLECULE: "C[S+](C)[O-] [dimethyl sulfoxide]"
  OBSERVED_PROPERTY: "seconds (flowability)"
  RESULT_VALUE: 20.3

Here is the next item to consider.
According to the records, this molecule OCC(O)CO [Glycerin] displays seconds (flowability) of 2.35
